target desc: Prothrombin (Homo sapiens, UniProt P00734)
experiment notes: Inhibition of thrombin
pIC50: −log10 of the molar value.
measured parameter: pIC50

In [3]: df
Out[3]:
                                   compound  measured_parameter  endpoint_result
0  CCC(C)[C@H](NC(=O)[C@H](CC(C)C)NC(=O)NCc1ccc(Cl)c(Cl)c1)C(=O)N[C@@H](CCCN=C(N)N)C(=O)c1nccs1 (some centres not stated)               pIC50             5.59
1  CC(C)[C@H](NC(=O)[C@H](Cc1ccccc1)NNC(=O)NCc1ccc(F)cc1)C(=O)N[C@@H](CCCNC(=N)N)C(=O)c1nccs1               pIC50             5.37
2  CC(C)[C@H](NC(=O)[C@H](Cc1cccnc1)NC(=O)N[C@@H](C)c1ccc(F)cc1)C(=O)N[C@@H](CCCNC(=N)N)C(=O)c1nccs1               pIC50             6.22
3  CC(C)C[C@H](NC(=O)NCc1ccc(Cl)c(Cl)c1)C(=O)N[C@@H](Cc1ccccc1)C(=O)N[C@@H](CCCN=C(N)N)C(=O)c1nccs1               pIC50             4.57
4  CC(C)C[C@H](NC(=O)NCc1ccc(Cl)c(Cl)c1)C(=O)N[C@H](C(=O)N[C@@H](CCCN=C(N)N)C(=O)c1nccs1)C(C)C               pIC50             6.06

[1] CC(C)C[C@H](NC(=O)NCc1ccc(F)cc1)C(=O)N[C@H](C(=O)N[C@@H](CCCNC(=N)N)C(=O)c1nccs1)C(C)C
[2] CC(C)[C@H](NC(=O)[C@H](Cc1ccccc1)NNC(=O)Nc1ccccc1)C(=O)N[C@@H](CCCNC(=N)N)C(=O)c1nccs1
Q: // compare: 1 vs 2 , metric pIC50, want the smaller Your choice should be expressed through its label.
A: 1
(1: 5.51, 2: 6.03)

* * *

experiment notes: Volume of distribution in iv dosed rat
Format: ADME, organism-based
applied conditions: in vivo, read-out: Vdss
measured parameter: Vd (L/kg)
Form entry: value (L/kg) — number only.

Q: Specify reported Vd for the compound shown: CC(C)[C@H](NC(=O)[C@H](Cc1ccc(O)cc1)NC(=O)N[C@H](C)c1ccc(Br)cc1)C(=O)N[C@@H](CCCN=C(N)N)C(=O)c1nccs1
A: 0.236

* * *

Consider the following pIC50 values measured on Coagulation factor XI (Homo sapiens, UniProt P03951).
Sequence (P03951 19-387 limits assumed): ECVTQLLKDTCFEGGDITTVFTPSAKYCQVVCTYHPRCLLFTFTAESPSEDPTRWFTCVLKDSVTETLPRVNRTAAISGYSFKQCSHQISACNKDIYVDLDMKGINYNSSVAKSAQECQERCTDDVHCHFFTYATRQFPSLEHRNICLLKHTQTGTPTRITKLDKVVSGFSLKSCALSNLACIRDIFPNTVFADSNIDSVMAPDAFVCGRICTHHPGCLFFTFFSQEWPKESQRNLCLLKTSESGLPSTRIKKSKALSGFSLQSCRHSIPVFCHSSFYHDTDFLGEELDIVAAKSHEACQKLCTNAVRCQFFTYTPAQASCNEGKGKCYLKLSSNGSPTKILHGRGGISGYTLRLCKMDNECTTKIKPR
Sequence (P03951 388-625 limits assumed): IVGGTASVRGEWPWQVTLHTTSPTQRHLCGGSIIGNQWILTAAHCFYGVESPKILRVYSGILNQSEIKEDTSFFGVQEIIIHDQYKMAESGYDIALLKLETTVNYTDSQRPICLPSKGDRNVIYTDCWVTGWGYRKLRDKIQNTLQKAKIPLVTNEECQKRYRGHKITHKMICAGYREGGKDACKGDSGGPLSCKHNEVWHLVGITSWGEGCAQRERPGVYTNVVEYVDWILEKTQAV
pIC50: −log10 of the molar value.
measured parameter: pIC50

compound	target desc	endpoint result
CC(C)[C@H](NC(=O)[C@H](Cc1c[nH]c2ccccc12)NC(=O)N[C@H](C)c1ccc(Br)cc1)C(=O)N[C@@H](CCCNC(=N)N)C(=O)c1nccs1	Coagulation factor XI (Homo sapiens, UniProt P03951)	7.54

[a] CCOC(=O)C(Cc1ccccc1)NC(=O)NN[C@@H](Cc1ccccc1)C(=O)N[C@H](C(=O)N[C@@H](CCCNC(=N)N)C(=O)c1nccs1)C(C)C (stereo partly drawn)
[b] CC(C)C[C@H](NC(=O)NCc1ccc(Cl)cc1Cl)C(=O)N[C@H](C(=O)N[C@@H](CCCN=C(N)N)C(=O)c1nccs1)C(C)C
Q: // compare: a vs b , metric pIC50, want the smaller Your choice should be expressed through its label.
A: a
(a: 6.59, b: 7.35)

* * *

experiment notes: Half life in iv dosed rat
Type: ADME, organism-based
applied conditions: in vivo
measured parameter: half-life (min)
Form entry: value (min) — number only.

Q: Specify reported half-life for the molecule shown: CC(C)[C@H](NC(=O)[C@H](Cc1ccc(O)cc1)NC(=O)N[C@H](C)c1ccc(Br)cc1)C(=O)N[C@@H](CCCN=C(N)N)C(=O)c1nccs1
A: 45

* * *

target desc: Coagulation factor X (Homo sapiens, UniProt P00742)
Sequence (P00742 41-179 limits assumed): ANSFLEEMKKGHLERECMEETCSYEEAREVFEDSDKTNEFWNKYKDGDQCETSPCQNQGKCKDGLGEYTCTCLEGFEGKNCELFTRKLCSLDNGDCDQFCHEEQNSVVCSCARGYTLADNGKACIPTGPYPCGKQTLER
Sequence (P00742 235-488 limits assumed): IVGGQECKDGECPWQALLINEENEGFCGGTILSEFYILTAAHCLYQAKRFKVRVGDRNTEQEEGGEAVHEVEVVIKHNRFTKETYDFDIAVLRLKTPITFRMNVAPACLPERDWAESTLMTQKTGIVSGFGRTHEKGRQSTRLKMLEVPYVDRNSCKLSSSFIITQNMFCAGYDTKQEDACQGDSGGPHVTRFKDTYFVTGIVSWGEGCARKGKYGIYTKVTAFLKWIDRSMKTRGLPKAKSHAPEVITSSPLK
pIC50: −log10 of the molar value.
measured parameter: pIC50

molecule	target desc	pIC50
CCOC(=O)C(Cc1ccccc1)NC(=O)NN[C@@H](Cc1ccccc1)C(=O)N[C@H](C(=O)N[C@@H](CCCNC(=N)N)C(=O)c1nccs1)C(C)C (some centres not stated)	Coagulation factor X (Homo sapiens, UniProt P00742)	4.84
CC(C)C[C@H](NC(=O)NCc1ccc(Cl)c(Cl)c1)C(=O)N[C@@H](C)C(=O)N[C@@H](CCCNC(=N)N)C(=O)c1nccs1	Coagulation factor X (Homo sapiens, UniProt P00742)	4.66
CC(C)[C@H](NC(=O)[C@@H](NC(=O)N[C@@H](C)c1ccc(Br)cc1)C1CCCCC1)C(=O)N[C@@H](CCCN=C(N)N)C(=O)c1nccs1	Coagulation factor X (Homo sapiens, UniProt P00742)	4.83
CC(C)C[C@H](NC(=O)NCc1ccc(Cl)cc1Cl)C(=O)N[C@H](C(=O)N[C@@H](CCCN=C(N)N)C(=O)c1nccs1)C(C)C	Coagulation factor X (Homo sapiens, UniProt P00742)	4.89
CC(C)[C@H](NC(=O)[C@@H](NC(=O)N[C@H](C)c1ccc(Br)cc1)C1CCCCC1)C(=O)N[C@@H](CCCNC(=N)N)C(=O)c1nccs1	Coagulation factor X (Homo sapiens, UniProt P00742)	5.57

[A] CC(C)C[C@H](NC(=O)NCc1ccc(Cl)c(Cl)c1)C(=O)N[C@@H](Cc1ccccc1)C(=O)N[C@@H](CCCN=C(N)N)C(=O)c1nccs1
[B] CCOC(=O)C(CC(C)C)NC(=O)NN[C@@H](Cc1ccccc1)C(=O)N[C@H](C(=O)N[C@@H](CCCNC(=N)N)C(=O)c1nccs1)C(C)C (some centres not stated)
[C] CC(C)[C@H](NC(=O)[C@H](Cc1c[nH]c2ccccc12)NC(=O)N[C@H](C)c1ccc(Br)cc1)C(=O)N[C@@H](CCCNC(=N)N)C(=O)c1nccs1
[D] CC(C)[C@H](NC(=O)[C@H](CCCN=C(N)N)NC(=O)N[C@H](C)c1ccc(Br)cc1)C(=O)N[C@@H](CCCN=C(N)N)C(=O)c1nccs1
Q: Order field: pIC50 | Direction: descending (largest first) Please list the labels according to the requested order.
A: D, C, A, B

* * *

Consider the following IC50 values measured on Coagulation factor XI (Homo sapiens).
measured parameter: IC50 (nM)

compound	output unit	IC50
CC(C)[C@H](NC(=O)[C@H](Cc1ccc(O)cc1)NC(=O)N[C@H](C)c1ccc(Br)cc1)C(=O)N[C@@H](CCCN=C(N)N)C(=O)c1nccs1	nM	6
CC(C)[C@H](NC(=O)[C@H](Cc1ccccc1)NNC(=O)Cc1ccco1)C(=O)N[C@@H](CCCNC(=N)N)C(=O)c1nccs1	nM	2600

[a] CC(C)C[C@H](NC(=O)NCc1ccc(Cl)c(Cl)c1)C(=O)N[C@@H](C)C(=O)N[C@@H](CCCNC(=N)N)C(=O)c1nccs1
[b] CCOC(=O)C(CC(C)C)NC(=O)NN[C@@H](Cc1ccccc1)C(=O)N[C@H](C(=O)N[C@@H](CCCNC(=N)N)C(=O)c1nccs1)C(C)C (some centres undefined)
Q: // compare: a vs b , metric IC50, want the smaller Your choice should be expressed through its label.
A: b
(b: 403 nM, a: 920 nM)

* * *

Recorded 2aPTT for the following molecules
System: Plasma
experiment notes: Anticoagulant activity in human plasma measured by activated […] time
Assay type: functional
Form entry: value (µM) — number only.

Q: Specify reported 2aPTT for the molecule shown: CC(C)[C@H](NC(=O)[C@H](CCCNC(N)=O)NC(=O)N[C@H](C)c1ccc(Br)cc1)C(=O)N[C@@H](CCCNC(=N)N)C(=O)c1nccs1
A: 1.35

Q: Specify reported 2aPTT for the molecule shown: CC(C)[C@H](NC(=O)[C@H](Cc1ccc(O)cc1)NC(=O)N[C@H](C)c1ccc(Br)cc1)C(=O)N[C@@H](CCCNC(=N)N)C(=O)c1nccs1
A: 2.4

Q: Specify reported 2aPTT for the molecule shown: CC(C)[C@H](NC(=O)[C@@H](NC(=O)N[C@H](C)c1ccc(Br)cc1)C1CCCCC1)C(=O)N[C@@H](CCCNC(=N)N)C(=O)c1nccs1
A: 15.4

Q: Specify reported 2aPTT for the molecule shown: CC(C)[C@H](NC(=O)[C@H](Cc1cccnc1)NC(=O)N[C@H](C)c1ccc(Br)cc1)C(=O)N[C@@H](CCCNC(=N)N)C(=O)c1nccs1
A: 2.4

Q: Specify reported 2aPTT for the molecule shown: CC(C)[C@H](NC(=O)[C@H](CC(N)=O)NC(=O)N[C@H](C)c1ccc(Br)cc1)C(=O)N[C@@H](CCCNC(=N)N)C(=O)c1nccs1
A: 0.56

* * *

target desc: UniProt P03951
pIC50: −log10 of the molar value.
measured parameter: pIC50

                                        mol     target_desc  endpoint_result
0  CC(C)[C@H](NC(=O)[C@H](CC(N)=O)NC(=O)N[C@H](C)c1ccc(Br)cc1)C(=O)N[C@@H](CCCNC(=N)N)C(=O)c1nccs1  UniProt P03951             8.10

[1] CC(C)[C@H](NC(=O)[C@H](Cc1cccnc1)NC(=O)N[C@H](C)c1ccc(F)cc1)C(=O)N[C@@H](CCCN=C(N)N)C(=O)c1nccs1
[2] CC(C)[C@H](NC(=O)[C@H](Cc1cccnc1)NC(=O)N[C@H](C)c1ccc(Br)cc1)C(=O)N[C@@H](CCCNC(=N)N)C(=O)c1nccs1
Q: // compare: 1 vs 2 , metric pIC50, want the smaller Your choice should be expressed through its label.
A: 1
